test: Half life in Sprague-Dawley rat at 5 mg/kg, po measured upto 24 hrs by LC-MS/MS analysis; assay type: ADME, organism-based; conditions: in vivo
Observation Type: half-life (min)
Give the quantity in min, number only.

So for COc1cc(C(CC(=O)O)c2cccc3c2CCN(C(=O)c2ccc(OC(C)C)cc2Cl)C3)cc2nnn(C)c12 (stereo unspecified) , the logged half-life turned out to be 81.6

* * *

test: Volume of distribution in Sprague-Dawley rat at 1 mg/kg, iv measured upto 24 hrs by LC-MS/MS analysis; type: ADME, organism-based; conditions: in vivo, read-out: Vz
Observation Type: Vd (L/kg)
Give the quantity in L/kg, number only.

So for COc1cc(C(CC(=O)O)c2cccc3c2CCN(C(=O)c2ccc(OC(C)C)cc2Cl)C3)cc2nnn(C)c12 (stereo unspecified) , the logged Vd turned out to be 6.49

* * *

assay: MRT (0 to t) in Sprague-Dawley rat at 5 mg/kg, po measured upto 24 hrs by LC-MS/MS analysis; type: ADME, organism-based; settings: in vivo
Observation Type: MRT last at 24 h
I'd appreciate it if you included the unit after the number.

So for COc1cc(C(CC(=O)O)c2cccc3c2CCN(C(=O)c2ccc(OC(C)C)cc2Cl)C3)cc2nnn(C)c12 (stereo unspecified) , the logged MRT last at 24 h turned out to be 1.77 h

* * *

test: AUC (0 to t) in Sprague-Dawley rat at 5 mg/kg, po measured upto 24 hrs by LC-MS/MS analysis; format: ADME, organism-based; conditions: in vivo
Observation Type: AUC(0-t) at 24 h (ng·h/mL)
Give the quantity in ng·h/mL, number only.

So for COc1cc(C(CC(=O)O)c2cccc3c2CCN(C(=O)c2ccc(OC(C)C)cc2Cl)C3)cc2nnn(C)c12 (stereo unspecified) , the logged AUC(0-t) at 24 h turned out to be 265

* * *

test: Half life in Sprague-Dawley rat at 1 mg/kg, iv measured upto 24 hrs by LC-MS/MS analysis; type: ADME, organism-based; settings: in vivo
Observation Type: half-life (h)
Give the quantity in h, number only.

So for COc1cc(C(CC(=O)O)c2cccc3c2CCN(C(=O)c2ccc(OC(C)C)cc2Cl)C3)cc2nnn(C)c12 (stereo unspecified) , the logged half-life turned out to be 1.19

* * *

assay: Oral bioavailability in Sprague-Dawley rat at 5 mg/kg measured upto 24 hrs by LC-MS/MS analysis; assay type: ADME, organism-based; conditions: in vivo
Observation Type: bioavailability (%)
Give the quantity in %, number only.

So for COc1cc(C(CC(=O)O)c2cccc3c2CCN(C(=O)c2ccc(OC(C)C)cc2Cl)C3)cc2nnn(C)c12 (stereo unspecified) , the logged bioavailability turned out to be 20

* * *

experiment: Cmax in Sprague-Dawley rat at 1 mg/kg, iv measured upto 24 hrs by LC-MS/MS analysis; format: ADME, organism-based; details: in vivo
Observation Type: Cmax (ng/mL)
Give the quantity in ng/mL, number only.

So for COc1cc(C(CC(=O)O)c2cccc3c2CCN(C(=O)c2ccc(OC(C)C)cc2Cl)C3)cc2nnn(C)c12 (stereo unspecified) , the logged Cmax turned out to be 1640

* * *

experiment: MRT (0 to infinity) in Sprague-Dawley rat at 5 mg/kg, po measured upto 24 hrs by LC-MS/MS analysis; type: ADME, organism-based; settings: in vivo
Observation Type: MRT inf (h)
Give the quantity in h, number only.

So for COc1cc(C(CC(=O)O)c2cccc3c2CCN(C(=O)c2ccc(OC(C)C)cc2Cl)C3)cc2nnn(C)c12 (stereo unspecified) , the logged MRT inf turned out to be 1.85

Reference source: ChEMBL document CHEMBL6092171
